The measured values listed here are drawn from patent US6479435B1.

Exercise: for every item that follows, state its recorded CORN crop damage rating (0-100).
System: field corn (Zea mays L., var. Dekalb 535, CORN)
Assay: Post-emerge greenhouse test, crop damage rating
Format: in vivo
Conditions: 500 g al/ha, 14 days after application
Experimental: A standard greenhouse herbicide activity screening system was used to evaluate the herbicidal efficacy and crop safety of these test compounds. […] At 14 days after application of the test materials, phytotoxicity ratings were recorded. […]

Requested field: CORN crop damage rating (0-100). Item: O=c1n(CCCF)nnn1-c1cc(Oc2ncccc2[N+](=O)[O-])c(Cl)cc1F
5

Requested field: CORN crop damage rating (0-100). Item: CCN1CC(=O)N(c2cc(Oc3ncccc3C(F)(F)F)c(Cl)cc2F)C1=O
0

Requested field: CORN crop damage rating (0-100). Item: N#Cc1ccccc1Oc1cc(-n2c(=O)n3n(c2=S)CCCC3)c(F)cc1Cl
0

Requested field: CORN crop damage rating (0-100). Item: Cc1nsc(Oc2cc(-n3nnn(CCCF)c3=O)c(F)cc2Cl)c1[N+](=O)[O-]
0

Requested field: CORN crop damage rating (0-100). Item: Cn1c(C(F)(F)F)nc(-c2cc(Oc3ncccc3[N+](=O)[O-])c(Cl)cc2F)c1Cl
20

Requested field: CORN crop damage rating (0-100). Item: O=c1n(CCCF)nnn1-c1cc(Oc2ncccn2)c(Cl)cc1Cl
20

Requested field: CORN crop damage rating (0-100). Item: Cn1nc(-c2cc(Oc3ncccc3[N+](=O)[O-])c(Cl)cc2F)c(Cl)c1C(F)(F)F
60

Requested field: CORN crop damage rating (0-100). Item: Cn1nc(-c2cc(Oc3ncccc3C#N)c(Cl)cc2F)c(Cl)c1C(F)(F)F
10

Requested field: CORN crop damage rating (0-100). Item: O=c1n(-c2cc(Oc3ccc([N+](=O)[O-])cc3)c(Cl)cc2F)c(=S)n2n1CCCC2
10

Requested field: CORN crop damage rating (0-100). Item: Nc1ccc(Oc2cc(-n3c(=O)n4n(c3=S)CCCC4)c(F)cc2Cl)cc1
10

Requested field: CORN crop damage rating (0-100). Item: Cn1c(C(F)(F)F)nc(-c2cc(Oc3ncccn3)c(Cl)cc2F)c1Cl
80

Requested field: CORN crop damage rating (0-100). Item: O=C1C2CCCCN2C(=O)N1c1cc(Oc2ncccc2C(F)(F)F)c(Cl)cc1F (centres unmarked)
10

Requested field: CORN crop damage rating (0-100). Item: Cn1nc(-c2cc(Oc3ncccn3)c(Cl)cc2F)c(Cl)c1C(F)(F)F
70

Requested field: CORN crop damage rating (0-100). Item: Nc1ccc(Oc2cc(-n3c(=O)n4n(c3=S)CCCC4)c(F)cc2Cl)c(C(F)(F)F)c1
0

Requested field: CORN crop damage rating (0-100). Item: Cc1nn(-c2cc(Oc3ncccn3)c(Cl)cc2F)c(=O)n1C(F)F
100

Requested field: CORN crop damage rating (0-100). Item: O=c1n(-c2cc(Oc3ccccc3[N+](=O)[O-])c(Cl)cc2F)c(=S)n2n1CCCC2
20

Requested field: CORN crop damage rating (0-100). Item: Cn1c(C(F)(F)F)nc(-c2cc(Oc3ncccc3C(F)(F)F)c(Cl)cc2F)c1Cl
20

###

Test system: soybean (Glycine max L., var. Pella 86, SOY)
Experiment: Pre-emerge greenhouse test, crop damage rating
Type: in vivo
Set-up: key: 0 = no damage, 100 = complete death of all plants
Details: Rate 250 g al/ha, 14 days after application, rating scale 0-100
Experimental: A standard greenhouse herbicide activity screening system was used to evaluate the herbicidal efficacy and crop safety of these test compounds. […] At 14 days after application of the test materials, phytotoxicity ratings were recorded. […]
METRIC: SOY crop damage rating

Given the entry CCOC(=O)C(C)Oc1ccc(Oc2cc(-n3c(=O)n4n(c3=S)CCCC4)c(F)cc2Cl)c([N+](=O)[O-])c1 (stereo not shown) , what SOY crop damage rating was observed with soybean (Glycine max L., var. Pella 86, SOY)?
0

Given the entry CSc1cccnc1Oc1cc(-n2c(=O)n3n(c2=S)CCCC3)c(F)cc1Cl , what SOY crop damage rating was observed with soybean (Glycine max L., var. Pella 86, SOY)?
0

Given the entry CCOC(=O)C(C)Oc1ccc(Oc2cc(-n3c(=O)n4n(c3=S)CCCC4)c(F)cc2Cl)c(N)c1 (stereo not shown) , what SOY crop damage rating was observed with soybean (Glycine max L., var. Pella 86, SOY)?
0

Given the entry CCOC(=O)C(C)Oc1cc([N+](=O)[O-])c(Oc2cc(-n3c(=O)n4n(c3=S)CCCC4)c(F)cc2Cl)cc1Cl (stereo not shown) , what SOY crop damage rating was observed with soybean (Glycine max L., var. Pella 86, SOY)?
0

Given the entry O=c1n(-c2cc(Oc3ncc([N+](=O)[O-])s3)c(Cl)cc2F)c(=S)n2n1CCCC2 , what SOY crop damage rating was observed with soybean (Glycine max L., var. Pella 86, SOY)?
100

Given the entry CCOC(=O)C(C)Oc1ccc(Oc2cc(-n3c(=O)n4n(c3=O)CCCC4)c(F)cc2Cl)c([N+](=O)[O-])c1 (stereo not shown) , what SOY crop damage rating was observed with soybean (Glycine max L., var. Pella 86, SOY)?
0

Given the entry Nc1cccnc1Oc1cc(-n2c(=O)n3n(c2=S)CCCC3)c(F)cc1Cl , what SOY crop damage rating was observed with soybean (Glycine max L., var. Pella 86, SOY)?
20

###

Exercise: for every item that follows, state its recorded phytotoxicity rating AMARE.
Tested on: redroot pigweed (Amaranthus retroflexus, AMARE)
Assay: Pre-emerge greenhouse herbicide test, phytotoxicity rating
Format: in vivo
Details: 500 g ai/ha, 14 days after application, rating scale 0-100

Requested field: phytotoxicity rating AMARE. Item: Cn1c(C(F)(F)F)nc(-c2cc(Oc3ncccc3C(F)(F)F)c(Cl)cc2F)c1Cl
100

Requested field: phytotoxicity rating AMARE. Item: CN1CC(=O)N(c2cc(Oc3ncccn3)c(Cl)cc2F)C1=O
100

Requested field: phytotoxicity rating AMARE. Item: O=c1n(-c2cc(Oc3ccccc3)c(Cl)cc2F)c(=S)n2n1CCCC2
100

Requested field: phytotoxicity rating AMARE. Item: O=C1C2CCCCN2C(=O)N1c1cc(Oc2ncccc2C(F)(F)F)c(Cl)cc1F (centres unmarked)
100

Requested field: phytotoxicity rating AMARE. Item: N#Cc1ccccc1Oc1cc(-n2c(=O)n3n(c2=S)CCCC3)c(F)cc1Cl
100

Requested field: phytotoxicity rating AMARE. Item: Cn1c(C(F)(F)F)nc(-c2cc(Oc3ncccc3[N+](=O)[O-])c(Cl)cc2F)c1Cl
100

Requested field: phytotoxicity rating AMARE. Item: O=c1n(CCCF)nnn1-c1cc(Oc2ccc(C(F)(F)F)cn2)c(Cl)cc1F
85

Requested field: phytotoxicity rating AMARE. Item: N#Cc1cccnc1Oc1cc(-n2nnn(CCCF)c2=O)c(Cl)cc1Cl
100

Requested field: phytotoxicity rating AMARE. Item: O=c1n(-c2cc(Oc3ccc([N+](=O)[O-])cc3C(F)(F)F)c(Cl)cc2F)c(=S)n2n1CCCC2
95

Requested field: phytotoxicity rating AMARE. Item: O=c1n(CCCF)nnn1-c1cc(Oc2ncccc2C(F)(F)F)c(Cl)cc1F
100

Requested field: phytotoxicity rating AMARE. Item: O=c1n(-c2cc(Oc3ccccc3[N+](=O)[O-])c(Cl)cc2F)c(=S)n2n1CCCC2
100

Requested field: phytotoxicity rating AMARE. Item: O=c1n(CCCF)nnn1-c1cc(Oc2ncccn2)c(Cl)cc1F
100

Requested field: phytotoxicity rating AMARE. Item: Cn1nc(-c2cc(Oc3ncccc3[N+](=O)[O-])c(Cl)cc2F)c(Cl)c1C(F)(F)F
100

Requested field: phytotoxicity rating AMARE. Item: COc1nc(OC)nc(Oc2cc(-c3nn(C)c(C(F)(F)F)c3Cl)c(F)cc2Cl)n1
100

Requested field: phytotoxicity rating AMARE. Item: Cn1nc(-c2cc(Oc3nc(F)c(F)cc3F)c(Cl)cc2F)c(Cl)c1C(F)(F)F
99

Requested field: phytotoxicity rating AMARE. Item: O=c1n(CCCF)nnn1-c1cc(Oc2ncccc2[N+](=O)[O-])c(Cl)cc1Cl
90

Requested field: phytotoxicity rating AMARE. Item: N#Cc1cccnc1Oc1cc(-n2nnn(CCCF)c2=O)c(F)cc1Cl
100

###

System: upland rice (Oryza sp., var.Tebonnet, RICE)
Test: Post-emerge greenhouse test, crop damage rating
Format: in vivo
Details: 1000 g al/ha, 14 days after application
METRIC: RICE crop damage rating (0-100)
Write no unit; give the number alone.

Requested field: RICE crop damage rating (0-100). Item: O=c1cc2n(c(=O)n1-c1cc(Oc3ccc([N+](=O)[O-])cc3)c(Cl)cc1F)CCC2
10

Requested field: RICE crop damage rating (0-100). Item: O=c1cc2n(c(=O)n1-c1cc(Oc3ccccc3[N+](=O)[O-])c(Cl)cc1F)CCC2
10

Requested field: RICE crop damage rating (0-100). Item: N#Cc1cccnc1Oc1cc(-n2c(=O)cc3n(c2=O)CCC3)c(F)cc1Cl
25

Requested field: RICE crop damage rating (0-100). Item: Nc1ccc(Oc2cc(-n3c(=O)cc4n(c3=O)CCC4)c(F)cc2Cl)cc1
0

Requested field: RICE crop damage rating (0-100). Item: O=c1cc2n(c(=O)n1-c1cc(Oc3ncccc3[N+](=O)[O-])c(Cl)cc1F)CCC2
0

Requested field: RICE crop damage rating (0-100). Item: N#Cc1ccc(Oc2cc(-n3c(=O)cc4n(c3=O)CCC4)c(F)cc2Cl)nc1
25

Requested field: RICE crop damage rating (0-100). Item: CCOC(=O)C(C)Oc1ccc(Oc2cc(-n3c(=O)cc4n(c3=O)CCC4)c(F)cc2Cl)cc1 (stereo not shown)
60
